Each recorded value in this set is attributed to the nanobody polyreactivity screen of Harvey et al. (2022).

- test_name: yeast display, Sf9 membrane polyspecificity reagent, FACS + sequencing; frameworks hold sequencing errors
readout_kind: polyreactivity (PSR sort gate)

>>> result("QVQLVESGGGLVQAGGSLRLSCAASGSTFVPYALGWYRQAPGKERELVAAITTSGGNTYYADSVKGRFTISRDNAKNTVYLQMNSLKPEDTAVYYCAADTFRRFDYWGQGTQVTVSS")
"low polyreactivity"
>>> result("QVQLVESGGGLVQAGGSLRLSCAASGSISKINAMGWYRQAPGKERELVAAINTGDSTYYADSVKGRFTISRDNAKNTVYLKMNSLKPVDSAVYYCAAEGSPTGYDYWGQGTQVTVTS")
"low polyreactivity"

----------
- test_name: yeast display, Sf9 membrane polyspecificity reagent, FACS + sequencing; frameworks hold sequencing errors
readout_kind: polyreactivity (PSR sort gate)

Field: example entries. Status: answers known.
>>> result("QVQLVESGGGLLQAGGSLRLSCAASGRTFSYYAMGWYRQAPGKERELVAAISWRGGSTYYADSVKGRFTISRDNAKNTVYLQMNSLKPEDTAVYYCAALPRYALGEDYWGQGSQVTVSS")
"high polyreactivity"
>>> result("QVQLVESGGGLVQAGGSLRISCAASGFTFPIYAMGWYRKAPGKEREFVAAITASGDNTYYADSVKGRFTISRDNAKNTVYLQMNSLKPEDSAVYYCAADWFVDWWEYDYWGQGTQVTVSS")
"low polyreactivity"
>>> result("QVQLQERSGGLVQAGGSLRLSCAASGYIFNNVNMGWYSQSPGKEREFVAAVGSGSSTNYADSVKGRFTISRDNTKNTGYLHMNSLKPEDTAVYYCNAVRRTGGHGDYWGLGTQVTVSS")
"high polyreactivity"
>>> result("QVQLVESGGGLVQAGGSLRLSCAASGYTFSDNAIGWYRQAPGKERELVAAITSGVSTYYADSVKGRFTISRDNAKNTVYLQMNSLKPEDTAVYYCAKDVAVYADLYQGAPYGYWGQGTQVTVSS")
"low polyreactivity"
>>> result("QVQLVESGGGLVQAGGSLRLSCAASGSTFYAYAMGWYRQAPGKGGELVAAIDSGGSTYYADSVKGRFTISRDNAKNTVYLQMNSLKPEDTAVYYCAVRHRYTRAYWGRDYWGQGTQVTVSS")
"low polyreactivity"
>>> result("QVQLVESGGGLVQAGGSLRLSCPASGSTFVKNAMGWYRQAPGKERELVAAITARGGSTFYADSVKGRFTISRDNAKNTVYLQMISLTPEDTSVYYCADNGPRTYRLKDDYWGQGTQVTVSS")
"high polyreactivity"
>>> result("QVQLVESGGGLVQAGGSLRLSCAASGSIFWGNAMGWYRQAPGKERELVATISWSAGSTYYADSVKGRFTISRDNAMNTVYLQMNSLKPDDTAVYYCATDVRHSTLYYYWGQGTQVTVSS")
"low polyreactivity"
>>> result("QVQLVESGGGLVQAGGSLRLICAASGFIFFSNAMGWYRQAPGKERELVAVIDRATSTYYADSVKGRFTISRDNAKNTFYLQLNSLKPEDTAVYYCNADGEEVYDFNYFLSFKGDYWGQGTQVTVSS")
"low polyreactivity"

// recorded polyreactivity (PSR sort gate) for `QVQLVESGGRLVQAGGSLRLSCAASGIIFKGYDMGWYRQEHGKVRELVAGITWIVGSTYADSVKGRFTISRDNAKNTVYLQMNSLKPEDTAVYYCNADPELTGYRFLCAEGVEYWGEGTQVTVSS` : low polyreactivity

Short answer for `QVQLGESGGGLVPAGGSLRLSCAASGGTFKTNAMGWYRQAPGKERELVAAITGSGTSTYYADSVKGRFTISRDNAKNTVYLHMNSLKPEDTAVYYCAADNLYHPGIGDDYWGQGTQVTVSS` : polyreactivity (PSR sort gate) was low polyreactivity

GET /value?item= `QVQLEESGGGLVQAGGILRLSCAASGSTFVNNAMGWYRQAPGKERELVAAITSGSRTKYADSVKGRFTMSLDNAKYTVYFQMNSLQPEDTAVYYWNTMRVGWGQGTQVTVSS` &field=polyreactivity (PSR sort gate) returns high polyreactivity

----------
- test_name: yeast display, Sf9 membrane polyspecificity reagent, FACS + sequencing; frameworks hold sequencing errors
readout_kind: polyreactivity (PSR sort gate)

Sample records with polyreactivity (PSR sort gate):
>>> result("QVQLVETGGGLFQAGGTLLLSCAASGRIFIRNALVWYRQAPGKEWELVAAIRTRDASTYYADSVKGRFTISRDIAKNTVYLLMNSLKPVDTAVYYCNADTTWPSSSGPTTFGQGDYWGQGTQVTVSS")
"low polyreactivity"
>>> result("QVQLEESGGCLVQAGGSLRLSCAASGITFYGNVMGWYRQAPGKERELVAAISWSGGRTYYADSVKGRFTISRDNAKNTVSVQMNSLKPEDTAVDFCAAEGTTNRGVYASYDYWGQGTQVTVSS")
"low polyreactivity"
>>> result("QVQLVESGGGLVQAGGSLRLSCAASGSTFFANAMGWFRQAPGKAREFVAVITWGGSTYYADSVKGRFTISRDNAKNSVYLQMNSLKPEDTAVYYCNADYQPPGILYHWWRYYRGDYWGQGTQVTVSS")
"low polyreactivity"
>>> result("QVQLVESGGGLVQAGGSLRLSCAASGLILTRYAMGWYRQAPGKERELVAAITKNGGSTYYADSVKGRFTISRDNAKNTVYLLMNSLKPEDTAVYYCNVCPRRVDRSRAASSDYDYWGQGSQVTVSS")
"high polyreactivity"
>>> result("QVQLVDSGGGLVQAGGSLRLSCAASGSTFITNTMGWDRQSPGKDRELVAAISQSGTRTYYANSVKGRFTISRDNAKNTVYLQMNSLKPEDTAVYYCAADRQRYTSSSRKGLGYCGQGTQVTVSS")
"high polyreactivity"
>>> result("QVQLVESGGGLVQAGGRLRLSCAASGSIFQYNAMGWSRQAPGKERELVAAISRSGGSTYYADSVKGRFTISRDNAKNTVYLQMNSLKPEDTAVYYCHAVLGYYSPYDYWGQGTQVTVSS")
"low polyreactivity"

For `QVQLVESGGGLVQAGGSLRLSCAASGSIFGNNAMGWYRQAPGKERELVAAITSGGSTTYADSVKGRFTISRDNAKNTVYLLMNSLKPEDTAVYYCAATPVWGFVWEYNYWGQGTQVTVSS` the sequence record lists polyreactivity (PSR sort gate) as low polyreactivity

response.value for `QVQLVESGGGLVQAGGSLRLSCAASGGIFVLYAMGWYRQAPGKERELVAAIRYGGSSTYYADSVKGRFTISRDYAKNTVYLQMNSLKPEDTAVYYCAAEPYSWDTWVDYDYWGQGTQVTVSS` (field: polyreactivity (PSR sort gate)) = low polyreactivity

// polyreactivity (PSR sort gate) lookup, sequence = `QVQLVESGGGLVQAGGSLRLSCAASGGTFDNYAMGWYRQAPGKERELVAAISWSGDNTYYADSVKGRFTISRDNAKNTVYLQMNSLKPEDTAVYYCAAVYFWYSYDEGYTAYDYWGQGTQVTVSS` , result: low polyreactivity

Reported polyreactivity (PSR sort gate) for `QVQLVESGGGLVQAGGSLRLSCAASGFTISRYAMGWYRQAPGKERELVAAITWSGVSTYYADSVKGRFTISRDNAKNTVYLQMNSRKPEDTAVYYCAATTYSSSSSHDYWGQGTQVTVSS` was low polyreactivity

Entry `QAQLVDSGGGLVQEGGSLRLSCAASGLIFDANVMGSYRQAPGKERELVAAISWSGGRTYYADSVKGRFTISRDNAKNTVFFQMNSMNPEVTAVYYCAADTWPDMHDYWGQGTQVTVSS` , polyreactivity (PSR sort gate) reported as low polyreactivity

Kindly note the recorded polyreactivity (PSR sort gate) for `QVQLVESGGGLVQAGGSLRLSCAASGSISPANTMGWYRQAPGKEREFVAGISRRGGRTYYADSVKGRFTISRDNAKNTVYLQMNSLIPEDTAVYYCATALIVRGPSRYEYWGQGTQVTVSS` , which is high polyreactivity

polyreactivity (PSR sort gate) recorded for this sequence, `QVQLVESGGGLVQAGGSLRLSCAASGRIFARNAMGWYRQAPGKERELVAGITWSGSSTYYADSVKGRFTISRDNAKNTVYLQMNSLKPEDTAVYYCAVDYYVGSLRIDHDYWGQGTQVTVSS` , is low polyreactivity

Looking up `QVQLVESGGGLVQAGGSLRLSCAASGSIFQYNAMGWYRQEPGKERELVATITYIGGRTYYAYSVKGRFTISRDNAKNTVYLQMNSLKPEDTAVYYCAAEYYVISSPSFYEYDYWGQGTQVTVSS` , I see its polyreactivity (PSR sort gate) listed as low polyreactivity

Per the record, `QVQLVESGGGLVQAGGSLRLRCAASGSTFWGYAMGWYRQAPGKERELVASITWRGGSTYADSVKGRFTISRDNAKNTVYLQMNSLKPEDTAVYYCNALPYRYRRYDYWGQGTQVTVSS` has polyreactivity (PSR sort gate) of low polyreactivity

Measured polyreactivity (PSR sort gate) of `QVQLVESGGGLVQAGGSLRLSCAASGRTFRRNAMGWYRQAPGKEWELVADISNGDSTKYADSVKGRFTISRDNAKNTVYLQMNSLKPEDTAVYYCNAQRYRVVVYNSHGWQTRNYWGQGTQVTVSS` : low polyreactivity

Entry under test: `QVQLVDSGGGLVQAGGSLRLRCAASGSTFGIYAMGWYRQAPGKERELVAAISWRGGRTYYADSVKGRFTITRDNAKNNVYFQMNSLKPEDTAVYYCAADYRYLWEGYDYWGQGTQVTVSS` . Its polyreactivity (PSR sort gate) was low polyreactivity

Per the records, this sequence ( `QVQLVESGGGLVQAGGSLRLSCAASGRTFYPNAMGWYRQAPGKERELVAAITRSGGRTYYADSVKGRFTISRDNAKNTVYLQMNSLKPEDTAVYYCNADLYYHYYKYEYWGQGTQVTVSS` ) has polyreactivity (PSR sort gate) equal to low polyreactivity
